- assay system: T1, human A33 antigen, full length, on cells (human, UniProt Q99795 22-319)
- T1 construct: CHO cells transfected with full length A33 cDNA (A33-CHO), or endogenous antigen of LS174T (colon) and AsPC-1 (pancreatic) tumour cells; The cell line is named under assay; also called A33-CHO; A33 antigen on LS174T cells
- T1 sequence: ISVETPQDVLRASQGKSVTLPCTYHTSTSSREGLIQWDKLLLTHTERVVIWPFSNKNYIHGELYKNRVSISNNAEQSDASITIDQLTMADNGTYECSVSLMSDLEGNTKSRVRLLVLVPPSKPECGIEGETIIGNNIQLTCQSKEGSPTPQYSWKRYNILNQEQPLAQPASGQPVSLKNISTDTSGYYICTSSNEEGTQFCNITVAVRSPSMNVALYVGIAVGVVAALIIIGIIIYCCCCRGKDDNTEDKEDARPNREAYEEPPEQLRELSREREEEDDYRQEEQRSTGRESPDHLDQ
- run description: IHC on LS174T FFPE sections, 20ug/mL
- Protocol: Human IgG ELISA, rH-GPA33 Binding ELISA, cell Flow Cytometry (LS174T or AsPAC1), IHC staining (LS174T FFPE, tumor FFPE and Frozen tumor sections) and Coomassie blue staining of SDS-PAGE gel were used for the screening. Antibody in the culture supernatant was purified by Protein A/G purification in the column and dissolved in PBS buffer after three times dialysis. Aliquots of the antibodies were kept at -20° C. for storage. […]
This section presents binders with their documented H-Score of IHC values.
Express it in H-Score; write the number only.

Name the recorded H-Score of IHC for humanized 31.1 antibody #4 (cdr-HC + ven-LC) (antibody, human IgG1, kappa, V domains shown, Full heavy and light chains; transient Expi293 expression, tested as culture supernatant; also called Sample ID 4; cdr31.1-HC + ven31.1-LC) VH: QIQLVQSGAEVKKPGASVKVSCKASGYTFTNYGMNWVKQAPGKGLKWMGWINTYTGEPTYADDFKGRFAFTLDTSISTAYMELSRLRSDDTAVYFCARAYYGKYFDYWGQGTTVTVSS VL: SIVMTQSPSSLSVSVGDRVTITCKASQSVSNDVAWYQQKPGQSPKLLIYYASNRYTGVPDRFSGSGYGTDFTFTISSVQPEDLAVYFCQQDYSSPLTFGAGTKLELKR .
0

Requested field: H-Score of IHC. Item: humanized 31.1 antibody #7 (abb-HC + sdr-LC) (antibody, human IgG1, kappa, V domains shown, Full heavy and light chains; transient Expi293 expression, tested as culture supernatant; also called Sample ID 7; abb31.1-HC + sdr31.1-LC) VH: QIQLVQSGAEVKKPGASVKVSCKASGYTFTNYGMNWVRQAPGKGLEWMGWINTYTGEPTYAQKFQGRVTFTLDTSISTAYMELSRLRSDDTAVYFCARAYYGKYFDYWGQGTTVTVSS VL: SIQMTQSPSSLSASVGDRVTITCRASQSISNDLAWYQQKPGQSPKLLIYYASNRYTGVPDRFSGSGYGTDFTLTISSLQPEDFAVYFCQQDYSSPLTFGAGTKLEIKR
120

What value of H-Score of IHC has been recorded for this entry: humanized 31.1 antibody #2 (cdr-HC + abb-LC) (antibody, human IgG1, kappa, V domains shown, Full heavy and light chains; transient Expi293 expression, tested as culture supernatant; also called Sample ID 2; cdr31.1-HC + abb31.1-LC) VH: QIQLVQSGAEVKKPGASVKVSCKASGYTFTNYGMNWVKQAPGKGLKWMGWINTYTGEPTYADDFKGRFAFTLDTSISTAYMELSRLRSDDTAVYFCARAYYGKYFDYWGQGTTVTVSS VL: SIQMTQSPSSLSASVGDRVTITCRASQSVSNDVAWYQQKPGQSPKLLIYYASNRYSGVPDRFSGSGYGTDFTLTISSLQPEDFAVYFCQQDYSSPLTFGAGTKLEIKR
0
